Source listed as PubChem BioAssay (NCI).

System: LOX IMVI melanoma
Experiment: NCI tumour cell line growth inhibition, 48 h
measurementKind: TGI

As a guide, the following entries are already answered.
1. O=C1/C(=C/c2cccs2)NC(=S)N1CN1CCCC(CO)C1 (centres undefined)	> 100 µM
2. O=C(Cn1c(C(=O)c2ccccc2)nc2ccccc21)c1ccc(F)cc1	> 100 µM
3. COC(=O)C1=C(O)[C@H](C(=O)OC)[C@]2(O)[C@@H](C(=O)OC)[C@H]1C[C@@H](c1ccc(OC(=O)/C=C/c3ccco3)cc1)[C@@H]2C(=O)OC	3.17 µM
4. O=C(Nc1cccnc1)c1ccc2ccc3ccc(C(=O)Nc4cccnc4)nc3c2n1	> 100 µM
5. CCOC(=O)NC(=O)c1cn(CCN2CCNCC2)c(=O)[nH]c1=O	> 100 µM
6. CC(=O)ON(C(C)=O)C1C(COC(c2ccccc2)(c2ccccc2)c2ccccc2)OC2OC3(CCCC3)OC21 (centres undefined)	21.3 µM
7. CN(C)c1ccc(C(=NN)c2ccc(N(C)C)cc2)cc1	> 100 µM
8. O=C(CCOS(=O)(=O)CF)N1CCN(C(=O)CCOS(=O)(=O)CF)CC1	> 100 µM

Here is the next item to consider.
Which TGI value is on record for COC(=O)C(C(=O)C(=O)Nc1ccc(OC)cc1[N+](=O)[O-])c1nc2cc(C)c(C)cc2[nH]c1=O (centres undefined) ?
> 100 µM
